Assignment: determine reported z-score for the given compounds.
Experiment: basal MM1S mitochondrial membrane potential changes, profiling panel, cell-based, JC-1 fluorescence, 24 h, 100 nL compound (AID 1170); note: test concentration not given here
Details: higher = more signal
Reply with the value as a number alone.

# input Please report the recorded z-score for C=CCOC(=O)[C@H]1[C@@H]2C(=O)O[C@@H](c3ccccc3)[C@@H](c3ccccc3)N2[C@@H](c2ccc(OCCOC(=O)[C@H]3C[C@H]4C(=O)N5CCC[C@H]5C(=O)N4[C@H]3c3cccc(OCCO)c3)cc2)[C@]12C(=O)Nc1ccccc12 .
# output -0.673

# input Please report the recorded z-score for COc1ccc([Si](C)(C)[C@@H]2[C@@H](CCn3cc(CCO)nn3)O[C@]3(C(=O)N(Cc4ccc(N5C(=O)c6cccc7cccc5c67)cc4)c4ccccc43)[C@H]2C)cc1 .
# output -1.78

# input Please report the recorded z-score for C=CCNC(=O)[C@H]1[C@@H]2C(=O)O[C@@H](c3ccccc3)[C@@H](c3ccccc3)N2[C@@H](c2ccccc2OCCO)[C@]12C(=O)N(C(=O)OCCOC)c1ccc(C#CCCO)cc12 .
# output -0.665

# input Please report the recorded z-score for COc1ccc([Si](C)(C)[C@@H]2[C@@H](CC(=O)N3CCC[C@H]3CO)O[C@]3(C(=O)N(Cc4ccc(N5CCC5=O)cc4)c4ccccc43)[C@H]2C)cc1 .
# output -1.66

----------
Tested on: Human papillomavirus type 1a E7 protein (residues 1-88)
Test: HPV1a E7 small-molecule binders, primary screen, biochemical, small-molecule microarray, residues 1-88, 635 nm (AID 1129)
Details: small-molecule microarray binding, fluorescence 635 nm; higher = more signal
Assignment: determine reported composite z-score for the given compounds.
Reply with the value as a number alone.

# input Please report the recorded composite z-score for [N-]=[N+]=NCc1ccccc1C[C@@]1(C(=O)O)N=C(c2ccc(OCCCO)cc2)O[C@@H]1c1ccccc1 .
# output 0.998

# input Please report the recorded composite z-score for CO[C@H]1O[C@H](CO)[C@@H](OC(=O)Nc2ccccc2)[C@H](OC(=O)Nc2ccccc2-c2ccccc2)[C@H]1OC(=O)Nc1ccccc1-c1ccccc1 .
# output 1.23

# input Please report the recorded composite z-score for COCCCNC(=O)[C@@]1(C)c2ccccc2C(=O)N(Cc2cc(F)cc(C(F)(F)F)c2)[C@H]1c1ccc(CO)cc1 .
# output -1.01

# input Please report the recorded composite z-score for CC(C)N1C(=O)c2ccccc2[C@@H](C(=O)NCc2ccccc2)[C@@H]1c1ccc(CO)cc1 .
# output 0.369

# input Please report the recorded composite z-score for CO[C@H]1O[C@H](CO)[C@@H](OC(=O)Nc2ccccc2)[C@H](OC(=O)Nc2ccc3c(c2)OCO3)[C@H]1OC(=O)Nc1ccc2c(c1)OCO2 .
# output 1.19

# input Please report the recorded composite z-score for O=C(NCc1ccccc1)[C@@H]1c2ccccc2C(=O)N(Cc2ccccc2Cl)[C@H]1c1ccc(CO)cc1 .
# output 1.17

----------
Experiment: compound binding in COS7 lysate, probe aLAP1, primary screen, cell lysate, small-molecule microarray (AID 1124);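 note: lysate comes from COS7 cells expressing LAP1 and is applied at 0.3 µg/mL; score merges spot fluorescence near 667 nm with signal-to-noise over triplicate slides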
Settings: probe aLAP1, fluorescence, higher = more signal
Quick rule for you: composite z-score at 0.07 or higher means true (1), lower means false (0).

# input # bool: composite z-score of COc1ccc(CCNC(=O)[C@@]2(Sc3ccc(C)cc3)CC(=O)N(Cc3ccccc3)[C@@H]2c2ccc(CO)cc2I)cc1 >= 0.07
# output true (1)

# input # bool: composite z-score of COCCCN1C(=O)[C@@]2(Cc3ccccc31)c1ccccc1C(=O)N(Cc1ccccc1Cl)[C@H]2c1ccc(CO)cc1 >= 0.07
# output true (1)

# input # bool: composite z-score of CC(C)(C)OC(=O)CC[C@]1(C(=O)NCc2ccccc2)COC(c2ccc(OCCCO)cc2)=N1 >= 0.07
# output true (1)

# input # bool: composite z-score of CC(C)CCC[C@@H](C)[C@H]1CC[C@@]2(C)C3=C(CC[C@]12C)[C@@]1(C)CC[C@H](OC(=O)CCl)C(C)(C)C1CC3 (stereo partly specified) >= 0.07
# output false (0)

# input # bool: composite z-score of C=C(COC)C(=O)CC[C@@H](OC(=O)c1ccccc1-c1ccccc1C(=O)O)c1cccc(OCCO)c1 >= 0.07
# output false (0)

----------
Assay: S. cerevisiae RM11-1a growth modifiers, primary screen, strain RM11-1a, OD600, basal, 24 h (AID 1177);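 note: cultures grown under basal conditions with no added stressor; test concentration not given here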
Conditions: OD600, 24 h, higher = more signal, called active from +8 up or from −8 down
endpoint: z-score
Reply with the value as a number alone.

# input Please report the recorded z-score for CCCC[C@@H](O)C1=C(C)C[C@H]2C(=O)N(C)C(=O)[C@H]2[C@H]1CO .
# output -1.09

# input Please report the recorded z-score for COc1ccc([Si](C)(C)[C@H]2[C@H](CC(=O)N(CCO)Cc3ccccc3)O[C@@]3(C(=O)N(Cc4ccc(N5CCOC5=O)cc4)c4ccccc43)[C@@H]2C)cc1 .
# output 2.73

# input Please report the recorded z-score for C=C(C(=O)CC[C@@H](OC(C)=O)c1ccccc1OCCO)C(C)C .
# output 0.0933

----------
Assignment: determine reported z-score for the given compounds.
Target: NADPH oxidase 4 (Homo sapiens) (UniProt Q9NPH5)
Sequence (Q9NPH5 whole entry, looked up): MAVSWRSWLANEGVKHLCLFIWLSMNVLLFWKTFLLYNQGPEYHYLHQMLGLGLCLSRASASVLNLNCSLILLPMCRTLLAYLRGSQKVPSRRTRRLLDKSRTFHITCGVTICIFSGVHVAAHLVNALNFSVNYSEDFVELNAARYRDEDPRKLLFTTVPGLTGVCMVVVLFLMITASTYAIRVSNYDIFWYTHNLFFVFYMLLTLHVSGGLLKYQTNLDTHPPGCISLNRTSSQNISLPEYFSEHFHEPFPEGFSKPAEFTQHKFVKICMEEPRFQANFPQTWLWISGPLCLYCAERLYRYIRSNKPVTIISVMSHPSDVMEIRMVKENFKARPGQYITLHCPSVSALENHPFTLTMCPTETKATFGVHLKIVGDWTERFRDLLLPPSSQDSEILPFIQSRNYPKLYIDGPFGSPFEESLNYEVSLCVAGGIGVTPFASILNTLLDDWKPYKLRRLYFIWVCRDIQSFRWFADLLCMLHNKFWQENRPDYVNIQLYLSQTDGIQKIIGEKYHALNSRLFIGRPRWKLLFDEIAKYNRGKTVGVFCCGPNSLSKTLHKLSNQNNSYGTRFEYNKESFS
Test: NOX4-dependent H2O2 signal modulators, primary screen, NOX inhibitor project, cell-based, HEK293-NOX4, tetracycline-induced, Amplex Red fluorescence (AID 1160)
Details: 45 min, higher = more signal, called active from +8 up or from −8 down
Reply with the value as a number alone.

# input Please report the recorded z-score for CCN(CC)c1ccc(N2CC=CC34O[C@@H]5C=CCOC(=O)[C@@H]5[C@H]3C(=O)N(C(CO)C(C)C)[C@@H]4C2=O)cc1 (some centres not stated) .
# output 0.196

# input Please report the recorded z-score for CCN(CC)c1ccc(N2CC=CC34O[C@@H]5C=CCOC(=O)[C@@H]5[C@H]3C(=O)N(C(C)CO)[C@@H]4C2=O)cc1 (some centres not stated) .
# output 0.197

# input Please report the recorded z-score for COc1ccc(/C=C/C(=O)c2cccc(OCC(=O)OC(C)(C)C)c2)cc1 .
# output 0.197

# input Please report the recorded z-score for CC(C)(C)OC(=O)CC[C@@]12N=C(c3ccc(OCCCO)cc3)O[C@@H]1c1ccccc1N(Cc1ccccc1)C2=O .
# output -0.266

# input Please report the recorded z-score for CO[C@H]1O[C@H](CO)[C@@H](OC(=O)Nc2ccccc2)[C@H](OC(=O)Nc2ccc3c(c2)OCO3)[C@H]1OC(=O)Nc1ccc2c(c1)OCO2 .
# output -3.08

# input Please report the recorded z-score for CC(C)(C)OC(=O)CC[C@@]1(C(=O)N2CCOCC2)N=C(c2ccc(OCCCO)cc2)O[C@@H]1c1ccccc1 .
# output -0.961

# input Please report the recorded z-score for Cc1ccc(N2C(=O)c3ccccc3[C@](C)(C(=O)NC3CC3)[C@@H]2c2ccc(CO)cc2)nc1 .
# output 0.504

----------
Assignment: determine reported z-score for the given compounds.
Test: basal MM1S mitochondrial membrane potential changes, profiling panel, cell-based, JC-1 fluorescence, 24 h, 100 nL compound (AID 1170); note: test concentration not given here
Settings: higher = more signal

# input Please report the recorded z-score for COCCOC(=O)N1C(=O)[C@@]2(c3cc(C#CCNC(N)=O)ccc31)[C@H](c1ccccc1OCCO)N1[C@H](c3ccccc3)[C@H](c3ccccc3)OC(=O)[C@H]1[C@@H]2C(=O)Nc1nc2ccccc2s1 .
# output -1.32

# input Please report the recorded z-score for CC(C)(C)OC(=O)CC[C@]1(C(=O)NCc2ccccc2)N=C(c2ccc(OCCCO)cc2)O[C@H]1c1ccccc1N=[N+]=[N-] .
# output -0.669

# input Please report the recorded z-score for CC(C)NC(=O)[C@@H]1c2ccccc2C(=O)N(Cc2cc(F)cc(C(F)(F)F)c2)[C@H]1c1ccc(CO)cc1 .
# output 0.621

# input Please report the recorded z-score for COc1ccc([Si](C)(C)[C@H]2[C@H](CC(=O)N(CCO)Cc3ccccc3)O[C@@]3(C(=O)N(Cc4cccc(N5C(=O)COc6ccccc65)c4)c4ccccc43)[C@@H]2C)cc1 .
# output -0.397

# input Please report the recorded z-score for C=C(CCCC)/C(=C/C[C@@H](OC(=O)c1ccncc1)c1ccc(OCCO)cc1)c1cnc2ccccc2c1 .
# output 0.279

# input Please report the recorded z-score for CO[C@H]1O[C@H](CO)[C@@H](OC(=O)CCc2ccccc2)[C@@H]2OC(=O)[C@H](Cc3ccccc3)C/C=C/C[C@@H](Cc3ccccc3)C(=O)O[C@@H]12 .
# output 0.119

# input Please report the recorded z-score for O=C(N1CCCCC1)[C@@]1(Cc2ccccc2)N=C(c2ccc(OCCCO)cc2)O[C@H]1c1ccccc1 .
# output -2.56

# input Please report the recorded z-score for COCCCNC(=O)[C@@]1(Cc2ccccc2CN=[N+]=[N-])COC(c2ccc(OCCCO)cc2)=N1 .
# output -0.376

# input Please report the recorded z-score for C[N+](C)(C)CCCCNC(=O)[C@@H]1C[C@@H]2C(=O)NCC(=O)N2[C@@H]1c1cccc(OCCO)c1 .
# output -0.552

# input Please report the recorded z-score for CC(C)C(CO)N1C(=O)[C@@H]2C3C(=O)OCCC/C=C\[C@H]3OC23C=CCN(C(C)C)C(=O)[C@@H]13 (stereo partly specified) .
# output 1.05

# input Please report the recorded z-score for C[N+](C)(C)CCCC[C@@H]1NC(=O)[C@@H]2C[C@H](C(=O)NCCCCCNC(=O)CS)[C@H](c3ccc(O)cc3)N2C1=O .
# output -0.336

# input Please report the recorded z-score for C=CCC(OC(C)=O)[C@@H]1[C@@H](N(Cc2ccc(-c3ccccc3)cc2)C(=O)c2ccc(-c3ccccc3)cc2)c2cc(OCCCO)ccc2N1C(=O)c1ccc(-c2ccccc2)cc1 (stereo partly specified) .
# output -0.0803

# input Please report the recorded z-score for COCCCNC(=O)[C@@]1(C)c2ccccc2C(=O)N(Cc2cc(F)cc(C(F)(F)F)c2)[C@H]1c1ccc(CO)cc1 .
# output 0.659

# input Please report the recorded z-score for CCCCC(=C=CC[C@@H](O)c1ccc(OCCO)cc1)C[C@@H](O)c1cc(Cl)cc(Cl)c1O .
# output 0.781

# input Please report the recorded z-score for NCCCCCCNC(=O)[C@@H]1C[C@@H]2C(=O)N[C@@H](Cc3ccccc3)C(=O)N2[C@@H]1c1ccc(O)cc1 .
# output 0.188

# input Please report the recorded z-score for C[N+](C)(C)CCCC[C@@H]1NC(=O)[C@H]2C[C@@H](C(=O)NCCCCCN)[C@@H](c3cccc(OCCO)c3)N2C1=O .
# output 0.0601

# input Please report the recorded z-score for CC(C)(C)OC(=O)CC[C@@]1(C(=O)NCc2ccccc2)N=C(c2ccc(OCCCO)cc2)O[C@@H]1c1ccccc1CN=[N+]=[N-] .
# output 0.236

# input Please report the recorded z-score for C=C(COC)C(=O)CC[C@H](OC(=O)c1ccccc1-c1ccccc1C(=O)O)c1ccccc1OCCO .
# output 0.24

# input Please report the recorded z-score for C=C(/C(=C/C[C@H](OC(=O)c1ccncc1)c1cccc(OCCO)c1)c1cc(C(=O)OC)ccc1OC)C(C)C .
# output 0.343

# input Please report the recorded z-score for O=C1c2ccccc2[C@](Cc2ccccc2I)(C(=O)O)[C@H](c2ccc(CO)cc2)N1Cc1ccccc1Cl .
# output 0.295

# input Please report the recorded z-score for C=C(C1=CCN(S(=O)(=O)c2ccc(C)cc2)C1)[C@@H](OC(C)=O)[C@@H]1CCCN1S(=O)(=O)c1ccccc1[N+](=O)[O-] .
# output -2.86
